Target: Human Indoleamine 2,3-dioxygenase (IDO) (Homo sapiens, UniProt P14902)
Construct: His tag (N); made in house; host or cells: E. coli
Sequence (P14902 whole entry): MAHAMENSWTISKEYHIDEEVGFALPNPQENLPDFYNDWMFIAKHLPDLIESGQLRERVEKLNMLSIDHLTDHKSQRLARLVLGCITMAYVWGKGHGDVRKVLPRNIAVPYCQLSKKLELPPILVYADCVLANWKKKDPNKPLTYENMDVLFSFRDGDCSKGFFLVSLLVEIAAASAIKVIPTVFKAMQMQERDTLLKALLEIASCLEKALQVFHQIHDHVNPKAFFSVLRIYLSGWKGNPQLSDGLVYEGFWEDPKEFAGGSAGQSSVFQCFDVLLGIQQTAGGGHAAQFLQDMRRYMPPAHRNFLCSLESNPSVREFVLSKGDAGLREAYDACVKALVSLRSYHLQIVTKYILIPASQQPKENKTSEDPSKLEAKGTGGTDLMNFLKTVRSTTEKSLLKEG
Assay: Human IDO enzymatic assay (kynurenine level)
Assay type: biochemical
Settings: 6 nM IDO, 10 μM L-Trp; geometric mean; read-out: IDO1 GMean: IC50 (μM) (Biochemical Assay)
IC50 for assorted compounds

Known IC50 results, listed for orientation:
> print(dat)
                                   compound           result
1  OC(c1cc(Cl)cc2cn[nH]c12)C1(F)CCC(F)(F)CC1 (stereo not drawn)  0.0001 to 10 µM
2  CC(C)(C1CCN(C(=O)Nc2ccc(OC(F)(F)F)cc2)CC1)C(O)c1cc(Cl)cc2cn[nH]c12 (stereo not drawn)  0.0001 to 10 µM
3  O=S1(=O)CC2(CC(O)(c3cc(Cl)cc4cn[nH]c34)C2)C1     10 to 100 µM
4  OC(c1cccc2cncn12)C1CCCCC1 (stereo not drawn)  0.0001 to 10 µM

Would you kindly look at the next entry?
Problem: Suppose we examine the compound CC(C)(C1CCN(C(=O)Nc2ccccc2)CC1)C(O)c1cc(Cl)cc2[nH]ncc12 (stereo not drawn) ; what IC50 value has been reported?
Solution: 0.0001 to 10 µM

* * *

Target: human IDO (IDO1-expressing HEK293 cells) (Homo sapiens, UniProt P14902)
Construct: expressed in transfected cells
Sequence (P14902 whole entry): as above
Assay: Cell based kynurenine assay, IDO1-expressing HEK293 cell clones
Conditions: IDO1-expressing HEK293 cells, 24 hours incubation; geometric mean; read-out: HEK293 IDO1 Kynurenine GMean IC50 (μM) (Cellular Assay)
Each record here notes measured IC50.

Problem: Give IC50 (human IDO (IDO1-expressing HEK293 cells) (Homo sapiens, UniProt P14902)) of the following compound: O=C(Nc1ccc(F)cc1)N1CCC(C2(C(O)c3cc(Cl)cc4cn[nH]c34)CC2)CC1 (centres unmarked)
Solution: 0.0001 to 10 µM

Problem: // query: CC(C)(C1CCN(C(=O)c2c(F)cccc2Cl)CC1)C(O)c1cc(Cl)cc2cn[nH]c12 (centres unmarked)
Solution: 0.0001 to 10 µM

Problem: Try this compound next: OC(c1c2c(cc3cn[nH]c13)CC2)C1CC2CCC1C2 (centres unmarked)
Solution: 0.0001 to 10 µM

Problem: # iterate: OC1(c2cc(Cl)cc3cn[nH]c23)CC2(CCC2)C1
Solution: > 10 µM

* * *

Target: human IDO (IDO1-expressing HEK293 cells) (Homo sapiens, UniProt P14902)
Construct: expressed in transfected cells
Test: Cell based kynurenine assay, IDO1-expressing HEK293 cell clones
Conditions: IDO1-expressing HEK293 cells, 24 hours incubation; geometric mean; read-out: HEK293 IDO1 Kynurenine GMean IC50 (μM) (Cellular Assay)
IC50: recorded values

Worked cases, answers included:
> print(dat)
                                   compound  experimental.endpoint           result
1  OC(c1c(F)c(Cl)cc2cn[nH]c12)C(F)(F)C1CCOCC1 (stereo not drawn)                   IC50  0.0001 to 10 µM
2  Cc1ccc2cn[nH]c2c1C(O)C(C)(C)C1CCOCC1 (stereo not drawn)                   IC50  0.0001 to 10 µM

Then there is this compound:
Problem: I am curious: what IC50 value has been reported for OC(c1c(F)c(Cl)cc2cn[nH]c12)C12CCC(C(F)(F)F)(CC1)CC2 (stereo not drawn) ?
Solution: 0.0001 to 10 µM

* * *

Molecular target: human TDO (TDO-expressing HEK293 cells) (Homo sapiens)
Construct: expressed in transfected cells
Sequence (P48775 whole entry): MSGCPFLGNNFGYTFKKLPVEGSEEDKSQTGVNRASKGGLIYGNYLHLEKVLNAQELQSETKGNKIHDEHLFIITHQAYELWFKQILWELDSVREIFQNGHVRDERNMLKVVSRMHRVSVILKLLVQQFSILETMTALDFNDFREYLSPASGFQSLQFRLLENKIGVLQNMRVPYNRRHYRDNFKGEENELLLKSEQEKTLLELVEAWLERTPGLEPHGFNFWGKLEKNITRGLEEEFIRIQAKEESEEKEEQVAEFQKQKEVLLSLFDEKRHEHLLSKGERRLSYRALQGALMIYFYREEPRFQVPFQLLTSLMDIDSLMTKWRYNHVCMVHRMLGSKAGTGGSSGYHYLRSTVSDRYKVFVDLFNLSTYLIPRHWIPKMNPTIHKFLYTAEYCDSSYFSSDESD
Assay: Cell based kynurenine assay, TDO-expressing HEK293 cell clones
Conditions: TDO-expressing HEK293 cells, 24 hours incubation; geometric mean; read-out: HEK293 TDO Kynurenine GMean IC50 (μM) (Cellular Assay)
EXPERIMENTAL ENDPOINT: IC50

Field: example entries. Status: answers known.
> print(dat)
                                   molecule           result
1  OC(c1cc(Cl)cc2cn[nH]c12)C1CCC(F)(F)CC1 (centres unmarked) [Compound P-0022]  0.0001 to 10 µM
2  CC(C)(C1CCN(C(=O)Nc2ccc(Cl)c(C(F)(F)F)c2)CC1)C(O)c1cc(Cl)cc2cn[nH]c12 (centres unmarked) [Compound P-0393]  0.0001 to 10 µM
3  OC(c1cc(Cl)cc2cn[nH]c12)C1(Cc2cccc(F)c2)CCC1 (centres unmarked) [Compound P-0188]          > 10 µM
4  CC1(C(O)c2c(F)c(Cl)cc3cn[nH]c23)CC(F)(F)C1 (centres unmarked) [Compound P-0114]  0.0001 to 10 µM
5  CCC(CC)(CC)C(O)c1cc(Cl)cc2cn[nH]c12 (centres unmarked) [Compound P-0267]  0.0001 to 10 µM
6  CS(=O)(=O)N1CC(C(O)c2cc(Cl)cc3cn[nH]c23)C1 (centres unmarked) [Compound P-0226]          > 10 µM
7  CC(C)(C1CCN(C(=O)OCC(F)(F)F)CC1)C(O)c1cc(Cl)cc2cn[nH]c12 (centres unmarked) [Compound P-0177]  0.0001 to 10 µM
8  CNC(=O)N1CCC(C2(C(O)c3c(F)c(Cl)cc4cn[nH]c34)CC2)CC1 (centres unmarked) [Compound P-0162]  0.0001 to 10 µM

Problem: Need IC50, item OC(CC1CCOCC1)c1cccc2cncn12 (centres unmarked) [Compound P-0084]
Solution: > 10 µM

Problem: What about this molecule? CC(=O)N1CCC(C(F)(F)C(O)c2c3c(cc4cn[nH]c24)CC3)CC1 (centres unmarked) [Compound P-0129]
Solution: 0.0001 to 10 µM

Problem: Now the molecule CC(C)(C1CCN(C(=O)Nc2ccccc2C(F)(F)F)CC1)C(O)c1cc(Cl)cc2cn[nH]c12 (centres unmarked) [Compound P-0401]
Solution: 0.0001 to 10 µM

Problem: Also CS(=O)(=O)NC1CC(O)(c2cc(Cl)cc3cn[nH]c23)C1 (centres unmarked) [Compound P-0038] ?
Solution: 0.0001 to 10 µM

Problem: Check OC(c1cc(Cl)c(F)c2cn[nH]c12)C12CCC(CC1)CC2 (centres unmarked) [Compound P-0135] too.
Solution: 0.0001 to 10 µM

* * *

Target: human IDO (IDO1-expressing HEK293 cells) (Homo sapiens, UniProt P14902)
Construct: expressed in transfected cells
Experiment: Cell based kynurenine assay, IDO1-expressing HEK293 cell clones
Settings: IDO1-expressing HEK293 cells, 24 hours, geometric mean; read-out: HEK293 IDO1 Kynurenine GMean IC50 (μM) (Cellular Assay)
EXPERIMENTAL ENDPOINT: IC50

Example results:
> print(dat)
                                   molecule                               test.system  experimental.endpoint           result
1  O=C(CC1CCOCC1)N1CCC(C(F)(F)C(O)c2cc(Cl)cc3cn[nH]c23)CC1 (stereo not shown) [Compound P-0480]  human IDO (IDO1-expressing HEK293 cells) (Homo sapiens, UniProt P14902)                   IC50  0.0001 to 10 µM
2  CC(C)(C1CCN(C(=O)C2CC2)CC1)[C@@H](O)c1cc(Cl)cc2cn[nH]c12 [Compound P-0424]  human IDO (IDO1-expressing HEK293 cells) (Homo sapiens, UniProt P14902)                   IC50          > 10 µM
3  CC(C)(C1CCN(C(=O)CN2CCOCC2)CC1)C(O)c1cc(Cl)cc2cn[nH]c12 (stereo not shown) [Compound P-0441]  human IDO (IDO1-expressing HEK293 cells) (Homo sapiens, UniProt P14902)                   IC50  0.0001 to 10 µM

Now look at this one.
Problem: Given O=C(C1CCC1)N1CCC(C(F)(F)C(O)c2c(F)c(Cl)cc3cn[nH]c23)CC1 (stereo not shown) [Compound P-0409] , state its recorded IC50.
Solution: 0.0001 to 10 µM

* * *

Target: human IDO (IDO1-expressing HEK293 cells) (Homo sapiens)
Construct: expressed in transfected cells
Assay: Cell based kynurenine assay, IDO1-expressing HEK293 cell clones
Details: IDO1-expressing HEK293 cells, 24 hours incubation; geometric mean; read-out: HEK293 IDO1 Kynurenine GMean IC50 (μM) (Cellular Assay)
Entries and their IC50

Below: 4 molecules and their reported IC50.
> print(dat)
                                   molecule  experimental.endpoint           result
1  O=S(=O)(C1CC1)N1CCC2(CC1)CC(O)(c1cc(Cl)cc3cn[nH]c13)C2                   IC50          > 10 µM
2  CC1(C(O)c2cc(C(F)(F)F)cc3cn[nH]c23)CCCCC1 (centres unmarked)                   IC50  0.0001 to 10 µM
3  CC1(C(O)c2cc(Cl)cc3cn[nH]c23)CCCCC1 (centres unmarked)                   IC50  0.0001 to 10 µM
4  CC(O)(c1cc(Cl)cc2cn[nH]c12)C1CCCC1 (centres unmarked)                   IC50          > 10 µM

Problem: Quick check: IC50 of CC1(C)[C@H]2CCC3(CC(O)(c4cc(Cl)cc5cn[nH]c45)C3)[C@@H]1C2 (some centres unmarked) ?
Solution: 0.0001 to 10 µM
